- TARGET OF ASSAY: human δ opioid receptor (Homo sapiens (Human))
- MEASUREMENT DESCRIPTION: Receptor binding, competitive displacement of [3H]naltrindole
- RECORDED CONDITIONS: CHO cell membranes, cloned human receptor, 0.2 nM [3H]naltrindole; uM; read-out: Binding affinity δ (Ki)
Where a name gives a salt, the structure may show the parent alone.

>  <COMPOUND>
CN1CC[C@]23CC(=O)CC[C@@]2(O)[C@H]1Cc1ccc(C(=O)NCCc2ccc(-c4cnc(O)nc4O)cc2)c(O)c13

>  <Ki>
> 1 µM

$$$$
>  <COMPOUND>
CN1CC[C@]23CC(=O)CC[C@@]2(O)[C@H]1Cc1ccc(C(=O)NCCc2ccc(-c4cnc(=O)[nH]c4)cc2)c(O)c13 [Compound 11, maleate salt]

>  <Ki>
> 1 µM

$$$$
